Data origin: a melting point compilation (Tetko et al.; mined from patent text by program, amines drawn as free bases though some values may be those of a salt)

endpoint name: melting point

Here are 9 compounds together with their reported answers.
O=C(Cn1nc(-c2ccccc2O)nc1-c1ccccc1O)NCCN1CCOCC1; 180 to 182 °C
Cn1cc(-c2cccc(C(F)(F)F)c2)c(=O)c(-n2cncn2)c1; 181 to 183 °C
c1ccc(CSCC2CCn3c(nc4ccccc43)S2)cc1 (stereo not given); 97 to 99 °C
CC(C)C1(C)NC(c2ccccc2C(=O)O)=NC1=O (stereo not given); 162 to 163 °C
COc1ccc(C(=O)Nc2c(Cl)cncc2Cl)c2c1oc1ccc(NC(C)=O)cc12; 252 °C
COc1c(C=O)c2cc(Cl)c(Cl)cc2n1C1OC(CO)C(O)C1O (stereo not given); 198 to 199 °C
COc1cccc(Nc2nnc(Cc3ccncc3)c3ccccc23)c1; 118 to 120 °C
N#Cc1ccc(NC(=O)c2ccc3ccccc3c2O)c(OC(F)(F)F)c1; 178 °C
CNc1c(OC)cc(C(O)CS(C)(=O)=O)cc1OC (stereo not given); 141 to 142 °C

Moving on to another compound below.
## Input Annotate the compound Oc1ccccc1-c1ccnc(-c2ccccc2)n1 with its measured melting point.
## Output 195 to 198 °C

* * *

endpoint name: melting point

CCCCCCCCCCCCCCCCC(=O)Nc1ccc(O)cc1; 137 °C
CCCCCCN(C[C@H]1CC[C@H](CN(CCCCCC)C(=O)Nc2ccc(N(C)C)cc2)CC1)C(=O)Nc1ccc(N(C)C)cc1; 160 to 163 °C
CCOC(=O)c1cc2occc2nc1C(=O)OCC; 60 to 64 °C
CCOC(=O)COc1ccc([N+](=O)[O-])cc1OC; 87 to 88 °C

Moving on to another compound below.
## Input Annotate the compound CC(C)c1ccc(C2c3cc(N)ccc3OC2(C)C)cc1 (stereo not given) with its measured melting point.
## Output 109 to 110 °C

* * *

endpoint name: melting point

CC(=O)c1ccc(OCCOc2ccc3ccccc3c2)c(F)c1; 171 to 173 °C
O=C(O)c1ccc(OC(F)=C(F)F)cc1; 139 to 140 °C
CC(C)c1nc(C(F)(F)F)ccc1C(=O)c1c(S(C)(=O)=O)noc1C1CC1; 105 to 106 °C
CC(=O)NC[C@H]1CN(c2ccc(C(=O)c3cnc4c(Cl)cc(Cl)cn34)cc2)C(=O)O1; 228 to 229 °C

Moving on to another compound below.
## Input Annotate the compound COc1ccc(/C=C/C(=O)C2C(=O)CC(c3ccc(OC)cc3)C([N+](=O)[O-])C2c2ccccc2)cc1 (stereo not given) with its measured melting point.
## Output 164 to 165 °C

* * *

endpoint name: melting point

Here are 4 compounds together with their reported answers.
Cc1nc(-c2cc(CCc3ccccc3)no2)sc1C(=O)NCc1ccccc1; 114 to 115 °C
Cc1ccc(Nc2ncc(C=Cc3cccnc3)c3ccccc23)cc1Br; 91 °C
CCOc1ncc(C(C)=O)cc1C(=O)Nc1c(C(N)=O)nn(C2CN(CC)C2)c1CC; 230 to 233 °C
COC(=O)C(N)=Cc1ccc(OCC(O)CNC(C)C)c(Cl)c1 (stereo not given); 122 to 123 °C

## Input Annotate the compound COc1ccc2c(c1[N+](=O)[O-])C(=O)CC2 with its measured melting point.
## Output 155 to 158 °C

## Input Annotate the compound O=C(O)C1=CCCN(Cc2ccc(Cl)c(Cl)c2)C1 with its measured melting point.
## Output 240 to 245 °C

## Input Annotate the compound Cn1cnc(S(=O)(=O)O)c1Cl with its measured melting point.
## Output 309 to 310 °C

## Input Annotate the compound COC(=O)[C@@H]1C[C@H](NS(C)(=O)=O)C(=O)[C@H]2[C@@]1(C)CC[C@H]1C(=O)O[C@H](c3ccoc3)C[C@]21C with its measured melting point.
## Output 262 to 265 °C

## Input Annotate the compound CCC(=O)C1(Nc2ccccc2)CCN(CCc2ccccc2)CC1 with its measured melting point.
## Output 106 °C

## Input Annotate the compound OC1CN(Cc2nc(-c3ccc4c(c3)Nc3ccccc3S4)cs2)C1 with its measured melting point.
## Output 240 to 242 °C

## Input Annotate the compound Cc1nc(-n2ccn(Cc3ccc(F)cc3)c2=O)sc1C(=O)NCc1cccnc1 with its measured melting point.
## Output 158 to 159 °C

## Input Annotate the compound Nc1cc(OCc2ccccc2)nc(N)n1 with its measured melting point.
## Output 195 °C

## Input Annotate the compound CCn1cc(-c2cccc(C(F)(F)F)c2)c(=O)n1-c1ccccc1 with its measured melting point.
## Output 156 to 157 °C

## Input Annotate the compound N#CCCNC(=O)c1cccc(-c2ccc3c(c2)C(Oc2cccc(C(F)(F)F)c2)CC3)c1 (stereo not given) with its measured melting point.
## Output 120 to 121 °C

## Input Annotate the compound COc1cc(C(C)C)c(Oc2c(N)nc(N)nc2C2COC(C)(C)OC2)cc1I with its measured melting point.
## Output 167 to 168 °C

## Input Annotate the compound S=c1n(N=Cc2ccccc2)ccn1N=Cc1ccccc1 with its measured melting point.
## Output 215 to 218 °C

## Input Annotate the compound O=C(NC1CCCCC1)c1c(O)c2cccnc2n(Cc2ccccc2)c1=O with its measured melting point.
## Output 143 °C

## Input Annotate the compound CC(C)=CCCC(C)=CCS(=O)c1ccc2ccccc2c1 (stereo not given) with its measured melting point.
## Output 74 to 76 °C

## Input Annotate the compound COc1ccc(CCN2CCC(NC(=O)C34CC5CC(CC(C5)C3)C4)C2)cc1 (stereo not given) with its measured melting point.
## Output 81 to 83 °C

## Input Annotate the compound COC1=C(OC)C(=O)C2=C(CC(CCCCOc3ccc(C(=O)N4CCOCC4)cc3)C2)C1=O with its measured melting point.
## Output 128 to 131 °C

* * *

Listed compounds paired with reported melting point

Here are 6 compounds together with their reported answers.
O=C(CNC(=O)OCc1ccc([N+](=O)[O-])cc1)Oc1ccc(C(=O)OCI)cc1; 146 to 148 °C
Cc1c(C)c2c(c(C)c1N)CC(C)(CN1CCC(Nc3ccccc3)CC1)O2 (stereo not given); 116 to 118 °C
CCCOc1ccnc2[nH]cc(-c3ccnc(N)n3)c12; > 210 °C
COc1ccc(C(=O)Nc2nc3ccc(N4CCN(C)CC4)cc3c(NCc3ccccc3)c2C#N)cc1; 173 °C
Cc1cc(C)c(S(=O)(=O)NC(CNc2ccccc2)C(F)(F)F)c(C)c1 (stereo not given); 82 to 86 °C
Cc1nnc(C(=O)CCCCCCOc2ccc(OCc3ccccc3)cc2)o1; 118 to 120 °C

## Input Annotate the compound CN(C)n1c(C(F)(F)F)n[nH]c1=O with its measured melting point.
## Output 138 °C

## Input Annotate the compound CN(C)CC(O)Cn1c2ccccc2c2c3c(c4c5ccccc5n(C)c4c21)C(=O)NC3=O (stereo not given) with its measured melting point.
## Output 130 to 135 °C

## Input Annotate the compound CCCCN[C@@H]1CN(CC)C[C@H]1O (relative stereo) with its measured melting point.
## Output 57.5 to 59 °C

## Input Annotate the compound O=C([C@H]1CCCN1C(=O)Nc1ccc2ccccc2c1)N1CCc2c([nH]c3ccccc23)C1 with its measured melting point.
## Output 152 to 155 °C

## Input Annotate the compound Cc1c(NC(=O)CC(C)(C)C)cc2c(c1C)OC(C)(C)C2c1ccco1 (stereo not given) with its measured melting point.
## Output 126 to 127 °C

* * *

Listed compounds paired with reported melting point

CCC1(CCCCCBr)C(=O)Nc2ccc(F)cc21 (stereo unspecified); 82 to 83 °C
O=c1[nH]c2cc(C(F)(F)F)ccc2n1-c1cc(C(F)(F)F)cc([N+](=O)[O-])c1O; > 360 °C

## Input Annotate the compound CC(=O)Oc1cccnc1-n1ccnc1SCc1ccccc1N1CCOCC1 with its measured melting point.
## Output 89 to 91 °C

## Input Annotate the compound CSCCS(=O)(=O)NCCCc1ccc(-c2ccc(=O)[nH]n2)cc1 with its measured melting point.
## Output 173 to 174 °C

## Input Annotate the compound NCCN1CCC(Nc2nc3ccccc3[nH]2)CC1 with its measured melting point.
## Output 99.8 °C

## Input Annotate the compound C(=C\c1nc2ccccc2n1-c1ccccn1)/c1cccs1 with its measured melting point.
## Output 130 to 131 °C

## Input Annotate the compound O=C(O)c1ccc(Sc2ccc(OCc3ccc4ccccc4n3)cc2)cc1 with its measured melting point.
## Output 195 to 197 °C

## Input Annotate the compound Cc1cc(C#N)cc(C(=O)c2c(C(C)C)c(=O)[nH]c(=O)n2CC2(CC(=O)O)CC2)c1 with its measured melting point.
## Output 244 to 245 °C

* * *

endpoint name: melting point

CCCCOC1(c2nc(-c3ccc(F)cc3)c(-c3ccncc3)[nH]2)CCN(C)CC1; 177 °C
O=[N+]([O-])c1cc(Cl)c([N+](=O)[O-])c(Cl)c1; 109 to 112 °C
N#Cc1ccc(CN2C(=O)c3ccccc3C2=O)cc1; 189 to 191 °C
CCOC(=O)CC1CCCc2cc(O)c(C(=O)c3ccccc3)cc21 (stereo unspecified); 118 to 120 °C
CSCCCCCn1c(CCC(C)=O)nc2c(N)nc3ccccc3c21; 179 to 181 °C

## Input Annotate the molecule CCS(=O)(=O)Nc1cc(-n2cnc(C(F)(F)F)cc2=O)c(F)cc1C#N with its measured melting point.
## Output 170 °C

## Input Annotate the molecule N#Cc1cn(CO)cc1-c1ccccc1Cl with its measured melting point.
## Output 94 to 97 °C

## Input Annotate the molecule CN(C)c1nc2cc(NC(=O)c3c(C(=O)N4CCCC4)cnn3C)ccn2n1 with its measured melting point.
## Output 199 to 201 °C

## Input Annotate the molecule O=[N+]([O-])c1c(Cl)cccc1NCCO with its measured melting point.
## Output 78 °C

## Input Annotate the molecule COC(C)(CC(=O)NC1CCCCC1)OC with its measured melting point.
## Output 66 °C

## Input Annotate the molecule CCn1c(=O)[nH]c2c3cccnc3ccc21 with its measured melting point.
## Output 258 to 259 °C
